B1: Protein PTHB1 (Homo sapiens), Q3SYG4 (parent)
chain: MSLFKARDWWSTILGDKEEFDQGCLCLANVDNSGNGQDKIIVGSFMGYLRIFSPHPAKTGDGAQAEDLLLEVDLRDPVLQVEVGKFVSGTEMLHLAVLHSRKLCVYSVSGTLGNVEHGNQCQMKLMYEHNLQRTACNMTYGSFGGVKGRDLICIQSMDGMLMVFEQESYAFGRFLPGFLLPGPLAYSSRTDSFLTVSSCQQVESYKYQVLAFATDADKRQETEQQKLGSGKRLVVDWTLNIGEQALDICIVSFNQSASSVFVLGERNFFCLKDNGQIRFMKKLDWSPSCFLPYCSVSEGTINTLIGNHNNMLHIYQDVTLKWATQLPHIPVAVRVGCLHDLKGVIVTLSDDGHLQCSYLGTDPSLFQAPNVQSRELNYDELDVEMKELQKIIKDVNKSQGVWPMTEREDDLNVSVVVSPNFDSVSQATDVEVGTDLVPSVTVKVTLQNRVILQKAKLSVYVQPPLELTCDQFTFEFMTPDLTRTVSFSVYLKRSYTPSELEGNAVVSYSRPTDRNPDGIPRVIQCKFRLPLKLICLPGQPSKTASHKITIDTNKSPVSLLSLFPGFASQSDDDQVNVMGFHFLGGARITVLASKTSQRYRIQSEQFEDLWLITNELILRLQEYFEKQGVKDFACSFSGSIPLQEYFELIDHHFELRINGEKLEELLSERAVQFRAIQRRLLARFKDKTPAPLQHLDTLLDGTYKQVIALADAVEENQGNLFQSFTRLKSATHLVILLIALWQKLSADQVAILEAAFLPLQEDTQELGWEETVDAAISHLLKTCLSKSSKEQALNLNSQLNIPKDTSQLKKHITLLCDRLSKGGRLCLSTDAAAPQTMVMPGGCTTIPESDLEERSVEQDSTELFTNHRHLTAETPRPEVSPLQGVSE
partner: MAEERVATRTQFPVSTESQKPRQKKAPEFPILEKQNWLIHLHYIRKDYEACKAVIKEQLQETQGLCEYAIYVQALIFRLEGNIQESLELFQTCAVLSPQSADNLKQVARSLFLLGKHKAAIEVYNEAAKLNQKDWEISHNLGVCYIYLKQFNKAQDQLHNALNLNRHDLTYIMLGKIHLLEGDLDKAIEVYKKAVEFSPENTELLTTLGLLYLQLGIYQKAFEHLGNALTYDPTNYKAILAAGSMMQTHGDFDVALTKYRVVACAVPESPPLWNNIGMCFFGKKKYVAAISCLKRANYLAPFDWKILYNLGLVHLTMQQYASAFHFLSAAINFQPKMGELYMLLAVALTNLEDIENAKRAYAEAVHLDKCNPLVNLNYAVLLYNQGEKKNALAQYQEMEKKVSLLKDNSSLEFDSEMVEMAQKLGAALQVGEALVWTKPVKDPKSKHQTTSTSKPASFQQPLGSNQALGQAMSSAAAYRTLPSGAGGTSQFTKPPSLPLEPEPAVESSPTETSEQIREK

- Variants of: B1
- CONDITION DESCRIPTION: with bbs4_human BBS4, Q96RK4
METRIC: effect of a mutation on the interaction

- CHANGE: "E607A"
  effect of a mutation on the interaction: "with no effect"
- CHANGE: "K547E"
  effect of a mutation on the interaction: "with no effect"
- CHANGE: "L467K"
  effect of a mutation on the interaction: "with no effect"
- CHANGE: "Q677A"
  effect of a mutation on the interaction: "with no effect"
- CHANGE: "V413A"
  effect of a mutation on the interaction: "with no effect"

Qu. Note down effect of a mutation on the interaction recorded for V522K
Ans. with no effect

Qu. Provide effect of a mutation on the interaction value for the following variant: I812K
Ans. with no effect

Qu. Return the recorded effect of a mutation on the interaction value; entry: Y508A
Ans. with no effect

Qu. Tell us which effect of a mutation on the interaction value is on record for L533K
Ans. with no effect

Qu. Output effect of a mutation on the interaction of D517E
Ans. with no effect

Qu. Tell me its effect of a mutation on the interaction given R510K as the entry.
Ans. with no effect

Qu. Check the records and state effect of a mutation on the interaction for V575A
Ans. with no effect

The values you see were collected from IntAct's records for PubMed 29039417.
